Molecular target: T1, rGyr_hel (reverse gyrase helicase-like domain) (Thermotoga maritima, UniProt O51934 59-541)
T1 sequence: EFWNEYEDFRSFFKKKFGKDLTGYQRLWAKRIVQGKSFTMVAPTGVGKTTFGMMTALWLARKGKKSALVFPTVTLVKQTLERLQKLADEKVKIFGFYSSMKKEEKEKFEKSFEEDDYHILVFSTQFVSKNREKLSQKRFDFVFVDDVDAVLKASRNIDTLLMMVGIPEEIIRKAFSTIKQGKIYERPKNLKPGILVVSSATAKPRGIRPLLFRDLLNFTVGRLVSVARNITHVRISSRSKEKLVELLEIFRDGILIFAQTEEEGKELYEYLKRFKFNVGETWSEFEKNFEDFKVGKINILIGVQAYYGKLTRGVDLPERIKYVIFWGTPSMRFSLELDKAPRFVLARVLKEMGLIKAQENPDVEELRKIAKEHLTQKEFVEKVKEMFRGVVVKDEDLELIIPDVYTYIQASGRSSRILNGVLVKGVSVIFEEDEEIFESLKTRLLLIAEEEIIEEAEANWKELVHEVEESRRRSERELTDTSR
Assay: fluorescence anisotropy
Readout: pKd
Scale: pKd equals -log10([C]), with [C] in mol/L.

### Prompt # return recorded pKd for input 60-base ssDNA (ssDNA) DNA: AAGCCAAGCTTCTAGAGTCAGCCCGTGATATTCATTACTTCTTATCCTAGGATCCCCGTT
### Response 6.70
